- ASSAY_DETAILS: Blood plasma melatonin concentrations and pharmacokinetics in healthy male volunteers, by radioimmunoassay (cross-over study)
- Assay type: in vivo, human
- STATED_CONDITIONS: human, plasma; 0.2 and 0.4 mg nasal doses
OUTCOME_MEASURE: Tmax

The reported value for COc1ccc2[nH]cc(CCNC(C)=O)c2c1 [melatonin, N-acetyl-5-methoxytryptamine] in terms of Tmax is < 10 min
